Hey, just so you know, these numbers are from the supplement of paper PMC10567573.

// reported protein stability index for each item listed
B1: KIAA0774 (parent)
chain: FEDEVKRLGWQQQAELQELEERLQ

Variants of: B1
Assay: protein stability index of a GFP-peptide fusion (GPS, HEK-293T) (PSI 1-6); higher = more stable;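 note: lentivirally expressed fusions sorted by FACS into six bins by GFP to DsRed ratio, PSI derived from sequencing read proportions per bin multiplied by bin number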
Details: c terminus: a fixed tail appended
Measured metric: protein stability index

{"columns": ["Variant identifier", "Measured metric", "Reported value"],
 "data": [
  ["E20Q", "protein stability index", 3.9],
  ["L23F", "protein stability index", 4.09],
  ["L19H", "protein stability index", 4.08],
  ["Q17C", "protein stability index", 4.01],
  ["Q24T", "protein stability index", 3.99],
  ["F1A", "protein stability index", 4.11],
  ["E20A", "protein stability index", 4.08],
  ["Q17F", "protein stability index", 3.98],
  ["F1Q", "protein stability index", 4.05],
  ["L8T", "protein stability index", 3.93],
  ["Q24D", "protein stability index", 3.98],
  ["F1W", "protein stability index", 3.93]
]}
